Attribution: patent US20240391885A1

Assay Protocol: Solubility of linerixibat drug substance over pH 1.2-6.8 at 37±1° C. (Experiment 8a)
Type: physicochemical
Assay Conditions: simulated gastric fluid (SGF), 37 °C, pH 1.2, simulated gastric fluid, thermodynamic from solid, nominal pH 1.2, SGF, 1-hr timepoint
Measure Name: solubility at 1 h

Endpoint output: solubility at 1 h of CCCC[C@]1(CC)CS(=O)(=O)c2cc(CNC(CC(=O)O)CC(=O)O)c(OC)cc2[C@@H](c2ccccc2)N1 [Form I] . Value?
> 1000 µg/mL

* * *

Assay Protocol: Solubility of linerixibat drug substance over pH 1.2-6.8 at 37±1° C. (Experiment 8a)
Type: physicochemical
Assay Conditions: Britton Robinson buffer, 37 °C, pH 3, aqueous buffer, thermodynamic from solid, nominal pH 3.0, BR buffer, 24-hr timepoint
Measure Name: solubility at 24 h (µg/mL)
Answer with a number only, understood to be in µg/mL.

State the recorded solubility at 24 h for this entry: CCCC[C@]1(CC)CS(=O)(=O)c2cc(CNC(CC(=O)O)CC(=O)O)c(OC)cc2[C@@H](c2ccccc2)N1 [Form I]
232
